# subject-of-test: T1, prefusion-stabilized RSV F ectodomain (DS-Cav1), subtype B (respiratory syncytial virus subtype B)
# T1 construct: extracellular domain; also called Prefusion subtype B
# assay-notes: BLI, IgG on sensor
endpoint-label: pKd
FYI, pKd means -log10 of a concentration in mol per litre.

Task: Would you kindly share the measured pKd for ADI-15618 (antibody, V domains shown, IgG) VH: EVQLVETGGGLIQPGGSLRLSCVASGFSLRNYALGWLRQAPGKGLEWVSGGYYGDVYYTDSVKGRFAVSRDNSGDTVYLEMDNLRVEDTAVYYCARMETVTTDAGSGWDWYFEVWGRGTLVTVSS VL: ETTLTQSPATLSLSPGDWATLSCRASQSVGTYLAWYQHKPGQAPRLLIHDASNRASDIPSRFSGSGSGTDFTLTIRGLEPEDFAVYYCQQHRDWRPVTFGGGTKVEIK ?
Result: 9.27

Task: Would you kindly share the measured pKd for ADI-15611 (antibody, V domains shown, IgG) VH: QVQLVESGAEVKKPGSSVKVSCKASGGTFGRDSISWVRQAPGQGLEWMGGINPIFHTSHYAQKFQGRVTITADESTSTAYMELGNLRSEDTAMYYCARVPPPRGHCESTSCLWGTYFAFWGQGTLVTVSS VL: ETTLTQSPATLSLSPGERATLSCRASQRVRSYLAWYQQKPGQAPRLLIYDASIRATGIPARFSGSGSGADFTLTISSLEPEDFAVYYCQLRDYWPPTWTFGQGTKVEIK ?
Result: 8.36

Task: Would you kindly share the measured pKd for ADI-15638 (antibody, V domains shown, IgG) VH: EVQLVESGGGLVKPGGSLRLSCAASGFTITSYGMNWVRQAPGKGLEWVSSISSSSSFIHYGDSVKGRFTISRDNAKNSLYLQMNSLRAGDTAVYYCVRDSGHQDYRGDYWGQGTLVTVSS VL: QSVVTQPPSVSGAPGQRVSISCTGSSSNIGAGYDVHWYQQLPGTAPKLLIYTNNNRPSGVPDRFSGSKSGTSASLAINGLQAEDEADYYCQSYDRSLSGWVFGGGTKLTVL ?
Result: 9.40

Task: Would you kindly share the measured pKd for ADI-15605 (antibody, V domains shown, IgG) VH: QVQLVQSGPEVKKPGESLKISCKGSGYTFTTYWIGWVRQRPGKGLEWMGIIHPGDSDTRYSPSLQGQVTISVDKSINTAYLQWRSLKASDTGMYYCARFEYGDFGNDFWGQGTLVTVSS VL: NFMLTQPHSVSESPGKTVTISCSRSSGSIANNYVQWYQQRPGSSPTTVIYEDNQRPSGVPDRFSGSIDSSSNSASLTISGLKTEDEADYYCQSYDSSNHRVFGGGTKLTVL ?
Result: 8.46

Task: Would you kindly share the measured pKd for ADI-15616 (antibody, V domains shown, IgG) VH: QVQLVQSGGGLVKPGGSLRLSCAASGFTFSDHYMTWIRQAPGKGLEWVSYISSTSSFTNYADSVKGRFTISRDNAKKSLYLQMNSLRAEDTAVYYCARDRNWGYAYGSDYWGQGTLVTVSS VL: DIRLTQSPDTLSLSPGERATLSCRASQSVSSTYLAWYQQKPGQAPRLLIYGAFGRATGIPDRFSGSGSGTDFTLTISRLEPEDFAVYYCQLYGNSRTFGQGTKLEIK ?
Result: 8.76

Task: Would you kindly share the measured pKd for ADI-15609 (antibody, V domains shown, IgG) VH: EVQLLESGGGVVQPGRSLKLSCAASGFSFTTDVMHWIRQAPGKGLEWVAVISTDGANSYYAESVKGRFTISRDNSKNTLFLQMSSLRAEDTAVYYCASQGYHYVNMADVGVPSFDHWGQGTLVTVSS VL: ETTLTQSPSSLSASVGDRVTITCRARRSIDNYLNWYQHKPGTAPKLLIYAVSSLPSGVPSRFSGSGSGADFTLTISSLQPEDLATYYCQQSYMTPPTFGQGTKLEIK ?
Result: 9.20

Task: Would you kindly share the measured pKd for ADI-15642 (antibody, V domains shown, IgG; also called Antibody Number 206) VH: EVQLVESGGGLIQPGGSLRLSCAASGFTVSSKYMSWVRQAPGKGLEWVSIIYSGGSTYHADSVKGRFTISRDNSKNTLYLQMNSLRAEDTAVYYCARDDYDFWSGNGPPEMAVWGQGTTVTVSS VL: DIRMTQSPSSLSASVGDRVTITCRASQGISNYLAWYQQKPGKVPKLLIYAASTLQSGVPSRFSGSGSETDFTLTISSLQPEDVATYYCQKYNSVPLTFGQGTKVEIK ?
Result: 8.55

Task: Would you kindly share the measured pKd for ADI-15656 (antibody, V domains shown, IgG; also called Antibody Number 220) VH: QVQLVQSGAEVKKPGASVKVSCKASGYTFTDYYMHWVRQAPGQGLEWVGWINPNSGSTNYAQKFQGRVTVTRDTSISTAYMDLSRLRSDDTAVYYCASRSWDHDAFDIWGQGTMVTVSS VL: QSVLTQPPSVSGAPGQRVTISCTGSSSNIGAGYDVHWYQQLPGRAPKLLIFGNSNRPSGVPDRFSGSKSGTSASLAITGLQPEDEADYYCHCYDSRLSVVFGGGTKLTVL ?
Result: 8.21

Task: Would you kindly share the measured pKd for ADI-15603 (antibody, V domains shown, IgG) VH: QVQLVQSGGGLVQPGGSLRLSCAASGFTFGRHAMTWVRQAPGKGLEWVAGITATGDPTYYPDSVKGRFAVSRDNSRNTLYLQMDSLRVEDTALYYCARSWDDYGDLDWYFALWGRGTMVTVSS VL: EIVMTQSPAILSVSPGERATLSCRASQSVSSSLAWYQQKPGQAPRLLIYGASTRATGIPPRFSGSGSGTQFTLTISSLQSEDVAVYYCQQYSDWPPLTFGGGTKVEIK ?
Result: 8.16

Task: Would you kindly share the measured pKd for ADI-15565 (antibody, V domains shown, IgG) VH: QVQLVQSGAEVKKPGASVKVSCKASGYTFTNDINWVRQATGQGLEWMGWMNPNNGHTGYAQSFEGRVSMTRNSAINTAYLELSSLRFDDTAIYYCVYNFWSDSSVSWGQGTLVTVSS VL: QSVVTQPPSVSGAPGQSVAISCTGSSSNIGPGYDVHWYQQLPGAAPKLLIYGDSNRPSGVPDRFSTSKSGTSVSLAITGLQAEDEADYYCQSYDSSLRGYVFGTGTKLTVL ?
Result: 8.17
